Values compiled from patent US20170355774A1.

Parameter: koff. Scope: all listed entries.
# experimentalSystem: T1, hGITR.mFc (human)
# T1 construct: soluble dimeric construct with mouse Fc; also called dimeric human GITR
# T1 chain: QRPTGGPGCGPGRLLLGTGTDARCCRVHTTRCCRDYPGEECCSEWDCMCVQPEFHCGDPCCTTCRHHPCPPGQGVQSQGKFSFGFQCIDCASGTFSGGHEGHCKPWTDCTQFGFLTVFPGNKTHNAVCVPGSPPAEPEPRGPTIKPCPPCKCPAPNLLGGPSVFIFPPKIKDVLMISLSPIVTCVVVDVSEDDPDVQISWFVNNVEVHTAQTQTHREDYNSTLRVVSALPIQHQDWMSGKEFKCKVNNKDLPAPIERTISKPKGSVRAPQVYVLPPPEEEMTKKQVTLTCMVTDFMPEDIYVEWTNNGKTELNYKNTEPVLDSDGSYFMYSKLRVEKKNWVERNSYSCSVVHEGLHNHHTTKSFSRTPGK
# measurementDescription: SPR 37C, mAb capture
Lab book: enter the figure in s⁻¹, no units written.

A selection of reference data follows.
1) H4H14516P (antibody, human IgG4, V domains shown, human IgG4 (H4H)) VH: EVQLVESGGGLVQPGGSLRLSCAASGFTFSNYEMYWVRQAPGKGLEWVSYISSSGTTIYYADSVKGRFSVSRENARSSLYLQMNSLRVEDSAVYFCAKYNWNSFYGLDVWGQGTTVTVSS VL: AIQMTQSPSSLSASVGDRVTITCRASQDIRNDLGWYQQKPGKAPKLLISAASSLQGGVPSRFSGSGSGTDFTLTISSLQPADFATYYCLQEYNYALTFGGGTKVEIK : 0.00181
2) H1H14493P (antibody, human IgG1, V domains shown, human IgG1 (H1H)) VH: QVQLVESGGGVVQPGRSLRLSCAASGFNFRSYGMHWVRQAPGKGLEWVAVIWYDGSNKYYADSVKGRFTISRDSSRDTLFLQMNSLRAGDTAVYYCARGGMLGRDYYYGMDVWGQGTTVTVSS VL: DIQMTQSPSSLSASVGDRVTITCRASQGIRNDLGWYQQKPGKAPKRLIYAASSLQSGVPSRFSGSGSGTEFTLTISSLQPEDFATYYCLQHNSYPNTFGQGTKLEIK : 0.000191

Prompt line: Look up koff of H1H14486P (antibody, human IgG1, V domains shown, human IgG1 (H1H)) VH: QVQLVESGGGVVQPGRSLRLSCAASGFTFSNYGMHWVRQAPGKGLEWVAVIWYPGSNKFYTDSVEGRFTISRDNSKNTVYLQMDSLRAEDTAVYYCARGGALGVDYYYGMDVWGQGTTVTVSS VL: AIQMTQSPSSLSASVGDRVTLTCRASQGIRNDLGWYQQKPGKAPNFLIYSASSLQSGVPSRFSGSGSGTDFTLTISSLQPEDFATYYCLQNYNYPWTFGQGTKVEIK and report it.
Response line: 0.000153
